ASSAYED_TARGET: recombinant PRL-2 (Homo sapiens, UniProt Q12974)
Construct: 6xHis (N, cleaved yes); made in house; host or cells: E. coli One Shot BL21 Star
Sequence (Q12974 1-167): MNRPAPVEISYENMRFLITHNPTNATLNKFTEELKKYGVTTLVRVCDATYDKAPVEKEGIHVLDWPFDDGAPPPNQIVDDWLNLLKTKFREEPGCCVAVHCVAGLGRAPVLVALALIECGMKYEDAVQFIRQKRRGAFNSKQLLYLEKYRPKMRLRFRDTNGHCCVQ
MEASUREMENT_PROTOCOL: In vitro phosphatase assay (DiFMUP hydrolysis), PRL-2;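 further: PRL-2 activity read as DiFMUP hydrolysis after 20 min at room temperature with drug, enzyme first pre-reduced at 4 °C for 20 min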
Type: biochemical
CONDITION_LABEL: FDA-approved drug screen; activity compared to DMSO
Structures can show the parent of a compound that is named as a salt.
OBSERVABLE: % Phosphatase Activity (compared to DMSO) PRL-2 (%)
Give bare numbers, in %.

Reference set, count: 6
>>> meas_value("O=c1n(CCCN2CCN(c3cccc(Cl)c3)CC2)nc2ccccn12 [Trazodone HCl]")
142
>>> meas_value("CC(=O)N[C@H]1[C@H]([C@H](O)[C@H](O)CO)OC(C(=O)O)=C[C@@H]1N=C(N)N")
98
>>> meas_value("CC(C(=O)O)c1ccc(C(=O)c2cccs2)cc1 (stereo not drawn)")
95
>>> meas_value("CCOC(=O)N[C@@H]1CC[C@@H]2[C@@H](C1)C[C@H]1C(=O)O[C@H](C)[C@H]1[C@H]2/C=C/c1ccc(-c2cccc(F)c2)cn1")
73
>>> meas_value("Cl.c1ccc2c(c1)CCCC2C1=NCCN1 (stereo not drawn) [Tetrahydrozoline HCl]")
109
>>> meas_value("CC(=O)Oc1cc(C(F)(F)F)ccc1C(=O)O")
105

Answer for every listed entry: what is its % Phosphatase Activity (compared to DMSO) PRL-2? The entries follow.
1. COc1cc2nc(N3CCN(C(=O)C4CCCO4)CC3)nc(N)c2cc1OC (stereo not drawn) [Terazosin HCl]
2. COc1ncnc(NS(=O)(=O)c2ccc(N)cc2)c1OC
3. Nc1nc(N)c2nc(-c3ccccc3)c(N)nc2n1

Result:
1: 644; 2: 106; 3: 6324

###

ASSAYED_TARGET: recombinant PRL-3 (Homo sapiens)
Construct: 6xHis (N, cleaved yes); made in house; host or cells: E. coli One Shot BL21 Star
Sequence (O75365 whole entry): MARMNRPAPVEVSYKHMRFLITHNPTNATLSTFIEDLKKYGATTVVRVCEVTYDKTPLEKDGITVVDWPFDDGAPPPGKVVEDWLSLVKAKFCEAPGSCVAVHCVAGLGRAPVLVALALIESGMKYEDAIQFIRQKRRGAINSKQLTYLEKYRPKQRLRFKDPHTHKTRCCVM
MEASUREMENT_PROTOCOL: In vitro phosphatase assay (DiFMUP hydrolysis), PRL-3; further: test concentration or dose not given here
Type: biochemical
CONDITION_LABEL: FDA-approved drug screen; compared to DMSO
Counter-ions that a name gives are not always drawn.
OBSERVABLE: % Phosphatase Activity (compared to DMSO) PRL-3 (%)
One number for each entry, in %.

>>> meas_value("CCCC(=O)OCOC(=O)C1=C(C)NC(C)=C(C(=O)OC)C1c1cccc(Cl)c1Cl (stereo not shown) [Clevidipine Butyrate]")
262
>>> meas_value("C#C[C@]1(O)CC[C@H]2[C@@H]3CCC4=CC(=O)CC[C@@H]4[C@H]3C(=C)C[C@@]21CC")
80
>>> meas_value("CC(N)C12CC3CC(CC(C3)C1)C2 (stereo not shown)")
80
>>> meas_value("O=C(CCCCCCNC(=O)c1cnc(N(c2ccccc2)c2ccccc2)nc1)NO")
97

Answer for every listed entry: what is its % Phosphatase Activity (compared to DMSO) PRL-3? The entries follow.
1. CCC1=C(C)CN(C(=O)NCCc2ccc(S(=O)(=O)NC(=O)N[C@H]3CC[C@H](C)CC3)cc2)C1=O [Glimepiride]
2. CCC(=O)O[C@]1(C(=O)CCl)[C@@H](C)C[C@H]2[C@@H]3C[C@H](F)C4=CC(=O)C=C[C@]4(C)[C@@]3(F)[C@@H](O)C[C@@]21C [Halobetasol Propionate]
3. CCOc1cc(N)c(Cl)cc1C(=O)NCC1CN(Cc2ccc(F)cc2)CCO1 (stereo not shown) [Mosapride Citrate]
4. CC(/C=C1\SC(=S)N(CC(=O)O)C1=O)=C\c1ccccc1
5. O=C(NCCO[N+](=O)[O-])c1cccnc1
6. CN1CCC(OC(c2ccccc2)c2ccccc2)CC1 [Diphenylpyraline HCl]
7. O=C(NC1CCN(CCCCC2(C(=O)NCC(F)(F)F)c3ccccc3-c3ccccc32)CC1)c1ccccc1-c1ccc(C(F)(F)F)cc1 [Lomitapide Mesylate]
8. Cc1ccc(Nc2nccc(N(C)c3ccc4c(C)n(C)nc4c3)n2)cc1S(N)(=O)=O

Result:
76
77
57
74
91
98
125
89

Answer for every listed entry: what is its % Phosphatase Activity (compared to DMSO) PRL-3? The entries follow.
1. COC(=O)Nc1nc2ccc([S+]([O-])c3ccccc3)cc2[nH]1 (stereo not shown)
2. Nc1nc2[nH]cc(CCc3ccc(C(=O)N[C@@H](CCC(=O)[O-])C(=O)[O-])cc3)c2c(=O)[nH]1.Nc1nc2[nH]cc(CCc3ccc(C(=O)N[C@@H](CCC(=O)[O-])C(=O)[O-])cc3)c2c(=O)[nH]1.O.O.O.O.O.[Na+].[Na+].[Na+].[Na+] [Pemetrexed Disodium Hydrate]
3. C[C@H](CCC(=O)O)[C@H]1CC[C@H]2[C@@H]3C(=O)C[C@@H]4CC(=O)CC[C@]4(C)[C@H]3CC(=O)[C@]12C [Dehydrocholic acid]
4. NC(=O)CN1CCCC1=O
5. NC(=O)N1c2ccccc2CC(=O)c2ccccc21 [Oxcarbazepine]
6. C#C[C@]1(O)CC[C@H]2[C@@H]3CCC4=CC(=O)CC[C@@H]4[C@H]3CC[C@@]21CC
7. CC1(C)CCC(CN2CCN(c3ccc(C(=O)NS(=O)(=O)c4ccc(NCC5CCOCC5)c([N+](=O)[O-])c4)c(Oc4cnc5[nH]ccc5c4)c3)CC2)=C(c2ccc(Cl)cc2)C1

Result:
1. 92
2. 108
3. 80
4. 83
5. 89
6. 78
7. 78

Answer for every listed entry: what is its % Phosphatase Activity (compared to DMSO) PRL-3? The entries follow.
1. CCCNCC(O)COc1ccccc1C(=O)CCc1ccccc1 (stereo not shown) [Propafenone HCl]
2. Nc1ccn([C@@H]2CS[C@H](CO)O2)c(=O)n1
3. COC(=O)C1=C(C)NC(C)=C(C(=O)O[C@@H]2CCCN(Cc3ccccc3)C2)[C@@H]1c1cccc([N+](=O)[O-])c1.Cl (racemic) [Benidipine HCl]

Result:
79
92
94

Answer for every listed entry: what is its % Phosphatase Activity (compared to DMSO) PRL-3? The entries follow.
1. C[C@H]1O[C@@H](n2cc(F)c(=O)[nH]c2=O)[C@H](O)[C@@H]1O
2. CN(C)CCC(c1ccccc1)c1ccccn1 (stereo not shown) [Pheniramine Maleate]
3. Cc1cc(C#N)cc(C)c1Oc1nc(Nc2ccc(C#N)cc2)nc(N)c1Br
4. Cc1c(OCC(F)(F)F)ccnc1C[S@@+]([O-])c1nc2ccccc2[nH]1

Result:
[98, 70, 94, 93]

Answer for every listed entry: what is its % Phosphatase Activity (compared to DMSO) PRL-3? The entries follow.
1. COc1ncc(-c2ccc3nccc(-c4ccnnc4)c3c2)cc1NS(=O)(=O)c1ccc(F)cc1F
2. COc1c(N2CCNC(C)C2)c(F)cc2c(=O)c(C(=O)O)cn(C3CC3)c12 (stereo not shown)
3. COc1ccc(C(=O)N2CCCC2=O)cc1
4. CCCCCCCCCCCCCCCCOP(=O)([O-])OCC[N+](C)(C)C
5. CCOC(=O)c1ccc(N)cc1.Cl [Benzocaine hydrochloride]

Result:
1. 88
2. 122
3. 75
4. 122
5. 84
